Target: 1-phosphatidylinositol 4,5-bisphosphate phosphodiesterase gamma-2 (Homo sapiens, UniProt P16885)
Sequence (P16885 whole entry): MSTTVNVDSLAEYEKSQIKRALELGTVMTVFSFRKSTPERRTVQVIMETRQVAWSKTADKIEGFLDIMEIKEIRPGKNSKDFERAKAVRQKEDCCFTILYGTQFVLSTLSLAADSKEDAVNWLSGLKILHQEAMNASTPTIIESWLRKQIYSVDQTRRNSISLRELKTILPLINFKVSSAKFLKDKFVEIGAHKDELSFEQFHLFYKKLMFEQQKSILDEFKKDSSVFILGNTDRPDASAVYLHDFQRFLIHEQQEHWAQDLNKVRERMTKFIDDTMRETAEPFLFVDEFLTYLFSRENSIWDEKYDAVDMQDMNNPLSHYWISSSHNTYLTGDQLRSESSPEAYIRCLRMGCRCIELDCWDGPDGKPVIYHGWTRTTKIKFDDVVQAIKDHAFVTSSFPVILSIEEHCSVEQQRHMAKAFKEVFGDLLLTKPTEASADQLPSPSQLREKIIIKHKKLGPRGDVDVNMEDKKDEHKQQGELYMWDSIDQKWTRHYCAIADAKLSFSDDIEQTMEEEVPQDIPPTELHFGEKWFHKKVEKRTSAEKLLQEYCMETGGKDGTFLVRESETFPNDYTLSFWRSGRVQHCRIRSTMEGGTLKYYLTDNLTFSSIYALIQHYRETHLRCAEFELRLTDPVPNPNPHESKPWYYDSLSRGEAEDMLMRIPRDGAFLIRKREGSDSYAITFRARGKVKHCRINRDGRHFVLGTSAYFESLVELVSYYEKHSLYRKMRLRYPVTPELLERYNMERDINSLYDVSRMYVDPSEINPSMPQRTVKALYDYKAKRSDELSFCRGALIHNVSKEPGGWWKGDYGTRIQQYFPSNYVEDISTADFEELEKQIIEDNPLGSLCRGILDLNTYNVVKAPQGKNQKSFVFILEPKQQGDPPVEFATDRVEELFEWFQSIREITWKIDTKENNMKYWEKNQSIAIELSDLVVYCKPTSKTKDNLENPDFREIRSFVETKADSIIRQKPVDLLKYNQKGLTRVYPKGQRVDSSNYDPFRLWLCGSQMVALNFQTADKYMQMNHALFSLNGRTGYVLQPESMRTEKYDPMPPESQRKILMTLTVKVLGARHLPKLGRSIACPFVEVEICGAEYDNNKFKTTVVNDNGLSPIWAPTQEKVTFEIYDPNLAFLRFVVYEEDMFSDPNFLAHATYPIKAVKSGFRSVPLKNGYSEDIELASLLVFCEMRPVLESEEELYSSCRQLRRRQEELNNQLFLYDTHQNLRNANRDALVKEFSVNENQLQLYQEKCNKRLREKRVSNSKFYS
Assay: Inhibition of recombinant phospholipase C gamma2 expressed in baculovirus infected Sf9 cells using [3H]PIP2 by flashplate biochemical assay
Consider the following compounds; for each one, report its pIC50.
Numbers only, as −log10 of the molar value.

Some compounds with recorded pIC50:
O=C(NCCc1ccccc1)c1cc2cccc([N+](=O)[O-])c2[nH]1    6.00
O=C(NC(=O)c1ccccc1Cl)Nc1ccc2c(c1)S(=O)(=O)C=C2    5.02
O=C(Nc1ccc(Cl)cc1)c1cc2cccc([N+](=O)[O-])c2[nH]1    6.00
O=[N+]([O-])c1cc(-c2nc(-c3ccccn3)no2)cs1    5.70

Quick one: give me pIC50 for each item below, same order please.
1. O=C(Nc1nc2ccccc2c(=O)s1)c1ccc(Cl)cc1
2. COc1ccc(S(=O)(=O)n2ccc(-c3ccc4c(c3)CCC(C)(C)O4)n2)cc1

output:
5.70
5.52
